# experimental system: T1, PUF4 RNA-binding domain (Saccharomyces cerevisiae, UniProt P25339 537-888)
# T1 sequence: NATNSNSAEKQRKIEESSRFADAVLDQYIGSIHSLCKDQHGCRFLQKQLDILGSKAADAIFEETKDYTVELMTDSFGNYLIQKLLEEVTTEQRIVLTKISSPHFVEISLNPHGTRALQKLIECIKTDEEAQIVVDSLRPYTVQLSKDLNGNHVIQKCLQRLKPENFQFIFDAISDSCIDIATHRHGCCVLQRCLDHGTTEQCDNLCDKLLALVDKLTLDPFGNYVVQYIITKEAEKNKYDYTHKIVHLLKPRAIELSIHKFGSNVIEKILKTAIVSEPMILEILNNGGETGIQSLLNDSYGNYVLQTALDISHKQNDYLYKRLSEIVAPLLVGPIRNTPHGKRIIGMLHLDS
# experiment summary: Mg; RNA-MaP; 20 mM Na-HEPES pH 7.4, 30 mM KOAc, 0.75 mM MgCl2, 0.1% Tween-20, 5% glycerol, 0.1 mg/mL BSA, 2 mM DTT; 25 C; 0.0125-409.6 nM protein
# condition context: tags: N-His6-TEV cleaved; C-SNAP kept, Cy3B-labelled; label: tethered on chip by stalled RNA polymerase
quantity kind: pKd
Give bare numbers, as −log10 of the molar value.

{"binder": "UCUCUUUGUAACAAAUCUCUU (ssRNA) [Ic_S1_P4E.1_K4.1_C4.1_H4.1_A4.1_[T5A]_[A6C]_[T7A]_F4.1_[T8A]_T4.1]", "pKd": 6.96}
{"binder": "UCUCUUUUCUGUAUAUUAUCUCUU (ssRNA) [Ie_S1_P4E.1_K4.1_C4.1_H4.1_[+1TCT]_A4.1_F4.1_T4.1]", "pKd": 9.26}

Okay, now this binder:
Q. What measured pKd goes with Id_ii_S2_P5E.3_K5.2_C5.2_[C-2G]_[T-1C]_H5.2_A5.1_F5.1_T5.2_[T11C]_[A12C] (ssRNA) RNA: UUUGAUUAAUAUGAUAUCGUUCUUUCUGCUAUAUUAUUACCUUCUUUCUCGAUAUCAUAUUAAUCUUU ?
A. 6.88

Cited source: paper PMC9352680
